src = patent US20250281611A1

measured target: T1, CD19 (UniProt P15391 20-556, limits assumed)
T1 construct: whole, on cells; also called CD19 on JeKo-1
T1 sequence (looked up): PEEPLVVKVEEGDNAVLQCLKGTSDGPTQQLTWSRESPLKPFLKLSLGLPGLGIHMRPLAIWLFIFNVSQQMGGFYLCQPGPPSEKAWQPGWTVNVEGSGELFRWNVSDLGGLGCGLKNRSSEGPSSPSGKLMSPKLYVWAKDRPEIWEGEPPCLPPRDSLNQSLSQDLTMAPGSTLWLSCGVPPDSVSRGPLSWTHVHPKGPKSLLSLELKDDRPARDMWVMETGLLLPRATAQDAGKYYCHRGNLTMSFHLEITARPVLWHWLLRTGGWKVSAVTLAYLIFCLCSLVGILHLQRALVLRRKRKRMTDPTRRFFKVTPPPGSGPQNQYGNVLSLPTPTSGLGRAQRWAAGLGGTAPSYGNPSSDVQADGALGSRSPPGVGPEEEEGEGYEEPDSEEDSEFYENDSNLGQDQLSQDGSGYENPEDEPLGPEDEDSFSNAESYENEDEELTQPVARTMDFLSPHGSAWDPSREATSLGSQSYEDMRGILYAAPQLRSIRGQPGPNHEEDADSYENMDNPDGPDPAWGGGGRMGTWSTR
assay explanation: flow cytometry, JeKo-1 cells, bridge at saturating conc., BIL03s-AF647 detection
metric: MFI Bil03 AF647
Answer using only a numeral; do not append any unit.

Answered cases to consult:
[
  {
    "binder": "CD19 BRIDGE variant B1 (Fab, V domains shown) VH: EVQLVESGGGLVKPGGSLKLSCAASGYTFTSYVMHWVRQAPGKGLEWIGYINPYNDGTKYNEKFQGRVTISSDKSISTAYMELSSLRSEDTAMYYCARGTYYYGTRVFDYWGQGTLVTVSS VL: DIVMTQSPATLSLSPGERATLSCRSSKSLQNVNGNTYLYWFQQKPGQSPQLLIYRMSNLNSGVPDRFSGSGSGTEFTLTISSLEPEDFAVYYCMQHLEYPITFGAGTKLEIKR",
    "result value": 3.19
  },
  {
    "binder": "CD19 BRIDGE variant B8 (Fab, V domains shown) VH: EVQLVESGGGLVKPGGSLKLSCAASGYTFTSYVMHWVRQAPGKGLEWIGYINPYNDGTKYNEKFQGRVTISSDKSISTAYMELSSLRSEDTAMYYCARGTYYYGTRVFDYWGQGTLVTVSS VL: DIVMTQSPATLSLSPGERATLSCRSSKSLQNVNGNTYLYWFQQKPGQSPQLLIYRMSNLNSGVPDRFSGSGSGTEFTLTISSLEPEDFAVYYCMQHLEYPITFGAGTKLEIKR",
    "result value": 10.6
  },
  {
    "binder": "CD19 BRIDGE variant B7 (Fab, V domains shown) VH: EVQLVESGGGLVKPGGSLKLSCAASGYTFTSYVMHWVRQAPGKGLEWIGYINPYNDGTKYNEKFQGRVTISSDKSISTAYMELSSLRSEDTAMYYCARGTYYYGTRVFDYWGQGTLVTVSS VL: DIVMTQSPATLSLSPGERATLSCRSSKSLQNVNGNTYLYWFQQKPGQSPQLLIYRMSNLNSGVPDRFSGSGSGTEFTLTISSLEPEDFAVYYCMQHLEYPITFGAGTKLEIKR",
    "result value": 7.57
  },
  {
    "binder": "CD19 BRIDGE variant B20 (Fab, V domains shown) VH: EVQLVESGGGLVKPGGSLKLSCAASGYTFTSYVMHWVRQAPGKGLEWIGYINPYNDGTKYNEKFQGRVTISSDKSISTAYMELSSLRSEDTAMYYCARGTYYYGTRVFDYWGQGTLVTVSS VL: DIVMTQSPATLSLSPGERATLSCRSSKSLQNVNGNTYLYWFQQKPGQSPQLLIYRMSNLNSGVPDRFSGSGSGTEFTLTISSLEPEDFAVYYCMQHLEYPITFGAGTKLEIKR",
    "result value": 4.17
  }
]

Fill blank: measured MFI Bil03 AF647 of the binder CD19 BRIDGE variant B2 (Fab, V domains shown) VH: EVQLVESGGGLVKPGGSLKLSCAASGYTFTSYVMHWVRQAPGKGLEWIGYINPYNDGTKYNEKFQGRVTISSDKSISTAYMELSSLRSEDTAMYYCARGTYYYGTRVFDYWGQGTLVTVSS VL: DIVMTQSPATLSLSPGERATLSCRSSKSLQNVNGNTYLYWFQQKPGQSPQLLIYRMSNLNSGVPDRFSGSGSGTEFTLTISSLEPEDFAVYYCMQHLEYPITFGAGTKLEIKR is ____.
4.17

// next record CD19 BRIDGE variant B14 (Fab, V domains shown) VH: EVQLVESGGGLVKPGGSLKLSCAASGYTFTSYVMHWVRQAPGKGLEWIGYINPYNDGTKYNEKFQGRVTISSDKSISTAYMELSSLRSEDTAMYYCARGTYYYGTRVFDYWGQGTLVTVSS VL: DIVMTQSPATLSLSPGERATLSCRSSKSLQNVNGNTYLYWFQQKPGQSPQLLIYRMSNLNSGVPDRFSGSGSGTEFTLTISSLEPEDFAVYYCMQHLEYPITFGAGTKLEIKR
7.27
